Target: T1, soluble rat RGMa (rat, UniProt D4A188 48-421)
T1 construct: Soluble antigen in BIAcore
T1 sequence: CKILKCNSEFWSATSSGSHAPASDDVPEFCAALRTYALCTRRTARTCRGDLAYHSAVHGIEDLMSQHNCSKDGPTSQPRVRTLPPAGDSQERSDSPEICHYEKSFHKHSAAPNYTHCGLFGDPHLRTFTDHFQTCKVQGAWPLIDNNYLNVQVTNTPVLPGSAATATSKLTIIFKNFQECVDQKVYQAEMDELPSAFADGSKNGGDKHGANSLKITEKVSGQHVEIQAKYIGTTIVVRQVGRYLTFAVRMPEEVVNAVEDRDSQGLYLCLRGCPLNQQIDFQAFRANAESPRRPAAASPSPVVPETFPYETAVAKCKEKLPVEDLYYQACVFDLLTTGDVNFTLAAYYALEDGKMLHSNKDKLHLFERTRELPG
Assay: SPR (BIAcore);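 further: binding kinetics and affinity of anti-HJV antibodies toward soluble rat RGMa, determined by SPR on a BIAcore instrument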
Attribute Measured: Kd (nM)
Express the result in nM but write the number alone.

hHA-002 (antibody, human IgG1, kappa, L234A L235A, V domains shown, hIgG1 L234A, L235A, kappa) VH: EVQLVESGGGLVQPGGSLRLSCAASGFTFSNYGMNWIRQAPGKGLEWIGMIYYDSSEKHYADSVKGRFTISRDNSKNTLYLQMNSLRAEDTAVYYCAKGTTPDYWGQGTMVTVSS VL: DVVLTQSPLSLPVTLGQPASISCRSSQSLETSDGDTFLEWFQQRPGQSPRLLIYEVSSRFSGVPDRFSGSGSGTDFTLKISRVEAEDVGVYYCMQVTHDPLTFGQGTKLEIKR | 0.053
hHA-003 (antibody, human IgG1, kappa, L234A L235A, V domains shown, hIgG1 L234A, L235A, kappa) VH: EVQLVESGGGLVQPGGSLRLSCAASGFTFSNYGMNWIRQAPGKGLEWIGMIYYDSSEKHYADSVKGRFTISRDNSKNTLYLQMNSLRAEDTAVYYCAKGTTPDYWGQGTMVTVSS VL: DVVLTQSPLSLPVTLGQPASISCRSSQSLETSDGDTFLEWFQQRPGQSPRLLIYEVSNRFSGVPDRFSGSGSGTDFTLKISRVEAEDVGVYYCFQVTHDPVTFGQGTKLEIKR | 0.036

# next binder below
Which Kd reading was recorded for the binder hHA-005 (antibody, human IgG1, kappa, L234A L235A, V domains shown, hIgG1 L234A, L235A, kappa) VH: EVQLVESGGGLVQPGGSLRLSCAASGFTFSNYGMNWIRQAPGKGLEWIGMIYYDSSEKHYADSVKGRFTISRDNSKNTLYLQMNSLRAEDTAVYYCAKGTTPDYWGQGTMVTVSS VL: DVVLTQSPLSLPVTLGQPASISCRSSQSLEESDGYTFLEWFQQRPGQSPRLLIYDVSERFSGVPDRFSGSGSGTDFTLKISRVEAEDVGVYYCFQATYDPLTFGQGTKLEIKR ?
0.15
